tested-on: E-selectin (Homo sapiens)
Sequence (P16581 whole entry): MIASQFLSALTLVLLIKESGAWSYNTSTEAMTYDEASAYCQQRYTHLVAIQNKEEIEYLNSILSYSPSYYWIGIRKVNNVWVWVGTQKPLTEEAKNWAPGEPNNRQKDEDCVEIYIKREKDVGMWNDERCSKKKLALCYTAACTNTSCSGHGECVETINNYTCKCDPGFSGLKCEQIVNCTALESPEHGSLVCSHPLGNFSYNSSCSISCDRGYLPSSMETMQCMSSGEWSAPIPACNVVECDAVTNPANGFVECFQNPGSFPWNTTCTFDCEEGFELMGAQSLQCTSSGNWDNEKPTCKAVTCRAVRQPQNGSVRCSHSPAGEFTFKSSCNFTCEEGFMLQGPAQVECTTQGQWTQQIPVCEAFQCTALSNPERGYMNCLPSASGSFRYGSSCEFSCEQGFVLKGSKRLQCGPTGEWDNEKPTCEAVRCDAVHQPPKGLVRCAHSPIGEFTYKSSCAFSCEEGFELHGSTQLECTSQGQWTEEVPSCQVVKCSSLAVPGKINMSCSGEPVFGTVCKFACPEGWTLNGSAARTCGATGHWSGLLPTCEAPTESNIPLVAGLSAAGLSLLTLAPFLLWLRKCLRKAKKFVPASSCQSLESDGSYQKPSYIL
pIC50: −log10 of the molar value.
Reported pIC50 values are given for each entry in this list.

Recorded pIC50, per entry:
compound: C[C@@H]1O[C@@H](O[C@@H]2CCCC[C@H]2O[C@@H]2O[C@@H](COS(=O)(=O)O)[C@H](O)[C@H](O[C@@H](Cc3ccccc3)C(=O)O)[C@@H]2O)[C@@H](O)[C@@H](O)[C@@H]1O
pIC50: < 2.00

compound: C[C@@H]1O[C@@H](O[C@@H]2CCCC[C@H]2O[C@@H]2O[C@@H](CO)[C@H](O)[C@H](O[C@@H](CC3CCCCC3)C(=O)O)[C@@H]2O)[C@@H](O)[C@@H](O)[C@@H]1O
pIC50: 4.10

compound: CC1OC(OC2CCCCC2OC2OC(CNC(=O)c3ccccc3)C(O)C(OC(Cc3ccccc3)C(=O)O)C2O)C(O)C(O)C1O (configuration not stated)
pIC50: < 2.00

Query :: Would you mind telling me what pIC50 value was observed for CC1OC(OC2CCCCC2OC2OC(C(N)=O)C(O)C(O[C@@H](CC3CCCCC3)C(=O)O)C2O)C(O)C(O)C1O (some centres not stated) ?
Result :: < 2.00

Query :: Please report the recorded pIC50 for C[C@@H]1O[C@@H](O[C@@H]2CCCC[C@H]2O[C@@H]2O[C@@H](C(=O)O)[C@H](O)[C@H](O[C@@H](Cc3ccccc3)C(=O)O)[C@@H]2O)[C@@H](O)[C@@H](O)[C@@H]1O .
Result :: < 2.00

Query :: I have this compound here, C[C@@H]1O[C@@H](O[C@@H]2CCCC[C@H]2O[C@@H]2O[C@@H](C(=O)O)[C@H](O)[C@H](O[C@@H](CC3CCCCC3)C(=O)O)[C@@H]2O)[C@@H](O)[C@@H](O)[C@@H]1O , and I need its recorded pIC50.
Result :: < 2.00

Query :: Sample COC(=O)CCCCCCCCO[C@@H]1OC(CO)[C@@H](O[C@@H]2O[C@@H](CO)[C@H](O)[C@H](O[C@]3(C(=O)O)C[C@@H](O)[C@@H](NC(C)=O)[C@@H](C(O)C(O)CO)O3)[C@@H]2O)[C@@H](O[C@@H]2O[C@H](C)[C@@H](O)[C@H](O)C2O)[C@@H]1NC(C)=O (some centres not stated) — what was its pIC50?
Result :: 3.00

Hello, the source for this data is ChEMBL document CHEMBL1134184, in case you need it.
